# assay_target: T1, HLA-A*01:01 (human, biotinylated heavy chain)
# T1 construct: Conditional HLA class I complex whose UV-labile peptide is exchanged for the test peptide
# measurement_notes: UV-induced peptide exchange, HLA class I ELISA; Pos peptide = 100%;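 also: Streptavidin-captured biotinylated HLA class I complexes detected by HRP-conjugated anti-human B2M antibody, absorbance readout of intact complex amount after exchange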
Entries and their exchange rate with Pos peptide values follow.
readout_label: exchange rate with Pos peptide

1. NSKMALNSL (9-mer fragment of neoantigen P35; synthetic peptide) [P35 9-mer NSKMALNSL] :: 2.5%
2. GVLRRLLCR (9-mer fragment of neoantigen P37; synthetic peptide) [P37 9-mer GVLRRLLCR] :: 1.4%
3. FFKRAAEGF (9-mer fragment of neoantigen P77 (AR-V3); synthetic peptide) [P77 9-mer FFKRAAEGF] :: 1.9%
4. STRRAVRRM (9-mer fragment of neoantigen P16 (MSMB-NCOA4 fusion); synthetic peptide) [P16 9-mer STRRAVRRM] :: 5.5%
5. FPVGAEGTF (9-mer fragment of neoantigen P27; synthetic peptide) [P27 9-mer FPVGAEGTF] :: 4.8%

Where these numbers come from: patent US20230035403A1
